Target: d-enCas12a-Ultra (Acidaminococcus sp., UniProt U2UMQ6 1-1307, E174R;S542R;K548R;M537R;F870L;D908A;E993A;D1235A)
Test: Spec-seq (native PAGE EMSA with sequencing of bound and unbound); 25 mM Tris-HCl pH 7.4, 150 mM KCl, 5 mM MgCl2, 10% glycerol, 1 mM DTT, 40 ng/uL salmon sperm DNA; 400 nM Cas12a, 480 nM crRNA, 50 nM library, 37 C 1 h; native PAGE at room temperature; high values mean tight binding;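 note: relative affinity from the bound to unbound sequence frequency ratio in Spec-seq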
Details: protein: recombinant
RECORDED METRIC: binding signal (lnKA)
Output spec: scalar in lnKA, unitless text.

# example entries with known answers
{"BINDER": "TGTA (dsDNA) DNA 1: GCTATCTAGTGCTCAGTACGCACTGTGTAAGGAAACTTCTGGCAGGACCAGGTCATGAGATCGGAAGAGCACACGTCTGAACTCCAGTCA DNA 2: TGACTGGAGTTCAGACGTGTGCTCTTCCGATCTCATGACCTGGTCCTGCCAGAAGTTTCCTTACACAGTGCGTACTGAGCACTAGATAGC RNA: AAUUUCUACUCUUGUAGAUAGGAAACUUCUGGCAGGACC", "REPORTED VALUE": -0.296}
{"BINDER": "TCAC (dsDNA) DNA 1: GCTATCTAGTGCTCAGTACGCACTGTCACAGGAAACTTCTGGCAGGACCAGGTCATGAGATCGGAAGAGCACACGTCTGAACTCCAGTCA DNA 2: TGACTGGAGTTCAGACGTGTGCTCTTCCGATCTCATGACCTGGTCCTGCCAGAAGTTTCCTGTGACAGTGCGTACTGAGCACTAGATAGC RNA: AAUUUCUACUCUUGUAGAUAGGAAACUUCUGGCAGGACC", "REPORTED VALUE": -3}
{"BINDER": "GCCC (dsDNA) DNA 1: GCTATCTAGTGCTCAGTACGCACTGGCCCAGGAAACTTCTGGCAGGACCAGGTCATGAGATCGGAAGAGCACACGTCTGAACTCCAGTCA DNA 2: TGACTGGAGTTCAGACGTGTGCTCTTCCGATCTCATGACCTGGTCCTGCCAGAAGTTTCCTGGGCCAGTGCGTACTGAGCACTAGATAGC RNA: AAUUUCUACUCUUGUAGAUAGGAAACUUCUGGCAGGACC", "REPORTED VALUE": -0.56}

**Query** Look up binding signal: TAGC (dsDNA) DNA 1: GCTATCTAGTGCTCAGTACGCACTGTAGCAGGAAACTTCTGGCAGGACCAGGTCATGAGATCGGAAGAGCACACGTCTGAACTCCAGTCA DNA 2: TGACTGGAGTTCAGACGTGTGCTCTTCCGATCTCATGACCTGGTCCTGCCAGAAGTTTCCTGCTACAGTGCGTACTGAGCACTAGATAGC RNA: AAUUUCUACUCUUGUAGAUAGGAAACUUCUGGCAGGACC
**Result** -3.07

**Query** Look up binding signal: TACA (dsDNA) DNA 1: GCTATCTAGTGCTCAGTACGCACTGTACAAGGAAACTTCTGGCAGGACCAGGTCATGAGATCGGAAGAGCACACGTCTGAACTCCAGTCA DNA 2: TGACTGGAGTTCAGACGTGTGCTCTTCCGATCTCATGACCTGGTCCTGCCAGAAGTTTCCTTGTACAGTGCGTACTGAGCACTAGATAGC RNA: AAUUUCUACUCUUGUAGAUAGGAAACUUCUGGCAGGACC
**Result** -0.355
